method.description: Stability in mouse plasma assessed as parent compound remaining measured at 5 mins by LC-MS/MS analysis
Format: ADME, cell-free
condition.parameters: read-out: Stability
experimental.endpoint: remaining at 5 min (%)
Unit % implied. Number only.

Could you tell me which remaining at 5 min is on file for CC(C)(C)[C@H](NC(=O)c1cc2cc(C(F)(F)P(=O)(O)O)ccc2s1)C(=O)N1C[C@@H](OCCCCCC#Cc2cccc3c2CN(C2CCC(=O)NC2=O)C3=O)C[C@H]1C(=O)N1CCO[C@H](c2ccccc2)C1 (stereo partly specified) ?
102

---

method.description: Metabolic stability in mouse liver microsome assessed as parent compound remaining measured at 30 mins in presence of NADPH by LC-MS/MS analysis
Assay type: ADME
condition.parameters: liver microsomes, read-out: Stability
experimental.endpoint: remaining at 0.5 h (%)
State the answer as a number, implicitly in %.

Look up remaining at 0.5 h for this compound: CC(C)(C)[C@H](NC(=O)c1cc2cc(C(F)(F)P(=O)(O)O)ccc2s1)C(=O)N1C[C@@H](OCCCCCC#Cc2cccc3c2CN(C2CCC(=O)NC2=O)C3=O)C[C@H]1C(=O)N1CCO[C@H](c2ccccc2)C1 (stereo partly specified)
94
